System: HCC-2998 colon
ASSAY_NAME: NCI tumour cell line growth inhibition, 48 h; in the data active = GI50 below about 0.43 µM; inactive = the rest
Possible outcomes: TRUE for active, FALSE for inactive

# COMPOUND, CAT
measured = [
    ("O=C1OCC2=C1C(c1ccccc1)c1cc3c(cc1N2CCO)CCC3 (stereo not drawn)", "TRUE"),
    ("Clc1ccc(-c2nc(-c3c[nH]c4ncccc34)cs2)cc1", "FALSE"),
    ("O=[N+]([O-])c1ccc(Oc2cccnc2)c([N+](=O)[O-])c1", "FALSE"),
    ("O=C(/C=C/c1ccccc1Cl)c1ccc(O)cc1", "FALSE"),
    ("O=C(O[C@H]1CN[C@H](C#Cc2cc3ncnc(Nc4ccc(Cc5ccccc5)cc4)c3s2)C1)N1CCOCC1", "FALSE"),
    ("C=CC[Se]C(=O)c1ccccc1OC(C)=O", "FALSE"),
    ("C[C@H](Nc1ccc(C#N)n(C)c1=O)c1cc2cc(Cl)ccc2[nH]c1=O", "FALSE"),
    ("Nc1ccccc1C#Cc1ccccc1C#Cc1ccccc1N", "FALSE"),
]
